System: SNB-19 CNS
Assay: NCI-60 one-dose screen, 48 h (100 = growth as untreated, 0 = no growth, -100 = all killed)
Conditions: 10 µM unless noted
The panel holds about 83,000 compounds, 20% with a hit somewhere; the sample as a whole holds those more often.
experimental.readout: growth (%)
Numbers only, in %.

molecule: CC1(/C=N/NC(N)=S)NC(=O)NC1=O (stereo not given)
endpoint.unit: %
growth: 108
--
molecule: COc1ccc(Cc2cc(-c3ccccc3C)n[nH]c2=O)cc1
endpoint.unit: %
growth: 87.1
--
molecule: O=C(Nc1cccc([N+](=O)[O-])c1)c1ccc(Cl)c(Cl)c1
endpoint.unit: %
growth: 53.5
--
molecule: O=C1C=CC2(NN=C(c3ccccc3)N2c2ccc(Cl)cc2)c2cccc(O)c21 (stereo not given)
endpoint.unit: %
growth: 34.8
--
molecule: CC1(O)CCC2CC3OC3(C)CCC3OC3(C)C(O)CC1C2(C)C (stereo not given)
endpoint.unit: %
growth: 99.3

// batch mode: one growth value per listed entry
1. Oc1ccc(C(c2ccc(O)cc2)C(Cl)(Cl)Cl)cc1
2. c1cc(OCCN2CCCCC2)cc(-c2n[nH]c3ccc(-c4ncn[nH]4)cc23)c1
3. CCOC(=O)C1=C(C)N=C2Sc3cc(OC(F)(F)F)ccc3N2[C@H]1c1ccccn1
4. C=CCCCOC1[C@H](OCc2ccccc2)C(OCc2ccccc2)C(OC)O[C@@H]1CNC(=O)c1cccc(I)c1 (stereo not given in full)
5. CCOc1cc2ncc(C#N)c(Nc3ccc(OCc4ccccn4)c(Cl)c3)c2cc1NC(=O)/C=C/CN(C)C
6. O=C1OCC2=C1C(c1cccc(F)c1)c1cc3c(cc1N2CCO)OCCO3 (stereo not given)

Reply |
99.9
86.2
37.9
49.9
-44.2
18.6
